- system: Mu-type opioid receptor (Mus musculus)
- Sequence (P42866 whole entry): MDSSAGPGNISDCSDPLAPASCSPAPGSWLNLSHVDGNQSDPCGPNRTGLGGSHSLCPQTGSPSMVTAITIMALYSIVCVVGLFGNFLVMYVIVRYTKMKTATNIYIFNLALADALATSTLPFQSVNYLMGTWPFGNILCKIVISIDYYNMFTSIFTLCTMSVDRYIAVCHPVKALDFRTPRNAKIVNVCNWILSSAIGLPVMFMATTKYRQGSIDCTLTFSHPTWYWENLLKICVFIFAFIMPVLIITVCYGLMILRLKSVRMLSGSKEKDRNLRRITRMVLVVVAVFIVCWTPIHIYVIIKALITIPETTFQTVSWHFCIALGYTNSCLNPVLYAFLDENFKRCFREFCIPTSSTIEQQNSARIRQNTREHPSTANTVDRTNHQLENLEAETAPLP
- test protocol: Antagonist activity at mouse MOR expressed in CHO cells assessed as decrease in DAMGO-induced calcium influx incubated for 15 mins followed by DAMGO stimulation and measured after 90 sec by Fluo-4AM dye based fluorescence assay
Exercise: state measured IC50 for each of the compounds provided.
Please give a number only; it is taken to be in nM.

In: I'd like to know its IC50. The compound in question is CNC(=O)COCC(=O)NCCCCCCNC(=O)COCC(=O)N[C@@H]1CC[C@@]2(O)[C@H]3Cc4ccc(O)c5c4[C@@]2(CCN3CC2CC2)[C@H]1O5
Out: 133

In: What would you report for CC1(C)CN2C(CS/C(=N\[C@H]3CC[C@H](CNC(=O)COCC(=O)NCCCCCCNC(=O)COCC(=O)N[C@@H]4CC[C@@]5(O)[C@H]6Cc7ccc(O)c8c7[C@@]5(CCN6CC5CC5)[C@H]4O8)CC3)NC3CCCCC3)=CSC2=N1 ?
Out: 61.9
